assay: Acute toxicity (LD50); conditions: in vivo, po; orally
Measure name: LD50

Q: Specify reported LD50 for the compound shown: COP(=O)(O)OC[C@H]1O[C@@H](n2cnc3c(=O)[nH]cnc32)[C@H](O)[C@@H]1O [Me-IMP, Methyl-5'-inosine-monophosphate]
Result: > 5000 mg/kg

====

test: Further set: percent hydrolysis by 5'-nucleotidase (Table 1B); type: in vitro ADME, Crotalus atrox; details: rattlesnake, 20 minutes incubation, 200 μl, read-out: Percent hydrolysis by 5'-nucleotidase, Assay 2
Measure name: metabolised at 20 min (%)
Value expressed in %; do not type the unit.

Q: Specify reported metabolised at 20 min for the compound shown: COP(=O)(O)OC[C@H]1O[C@@H](n2cnc3c(=O)[nH]cnc32)[C@H](O)[C@@H]1O [Me-IMP, Methyl-5'-inosine-monophosphate]
Result: 2.2
